Experiment: Tem pharmacokinetics in whole blood
Assay type: in vivo, human
Details: human, whole blood, iv, 35 mg/m^2
value.type: Tmax (min)

{"mol": "CO[C@H]1C[C@@H]2CC[C@@H](C)[C@@](O)(O2)C(=O)C(=O)N2CCCC[C@H]2C(=O)O[C@H]([C@H](C)C[C@@H]2CC[C@@H](OC(=O)C(C)(CO)CO)[C@H](OC)C2)CC(=O)[C@H](C)/C=C(\\C)[C@@H](O)[C@@H](OC)C(=O)[C@H](C)C[C@H](C)/C=C/C=C/C=C/1C", "value.type": "Tmax", "unit.of.measurement": "min", "measured.result": 39.6}
